Test system: Panel (Carcinoma cell lines)
Experiment: sc score: subcutaneous implants. measured as in vivo hollow fiber assay in minimum of 12 human cancer cell lines
Type: functional
measure_name: Subcut score
Could you keep your reply to the number by itself?

Would you please look over these solved cases?
molecule: CC(=O)N[C@@H]1[C@H](OCc2ccccc2)O[C@@H](CO)[C@@H](O)[C@@H]1OC(C)C(=O)N[C@H](C(=O)N[C@H](CCC(=O)NCCCCNc1c2ccccc2nc2cccc([N+](=O)[O-])c12)C(N)=O)C(C)C (some centres not stated)
numeric_readout: 2

molecule: CC(=O)N[C@@H]1[C@H](OCc2ccccc2)O[C@@H](CO)[C@@H](O)[C@@H]1OCC(=O)N[C@@H](C)C(=O)N[C@H](CCC(=O)NCCCCNc1c2ccccc2nc2cccc([N+](=O)[O-])c12)C(N)=O
numeric_readout: 2

molecule: CC(=O)N[C@@H]1[C@H](OCc2ccccc2)O[C@@H](CO)[C@@H](O)[C@@H]1OCC(=O)N1CCC[C@H]1C(=O)N[C@H](CCC(=O)NCCCCCNc1c2ccccc2nc2cccc([N+](=O)[O-])c12)C(N)=O
numeric_readout: 0

Entry `CC(=O)N[C@@H]1[C@H](OCc2ccccc2)O[C@@H](CO)[C@@H](O)[C@@H]1OCC(=O)N[C@@H](C)C(=O)N[C@H](CCC(=O)NCCCNc1c2ccccc2nc2cccc([N+](=O)[O-])c12)C(N)=O` — recorded Subcut score = 2

Entry CC(=O)N[C@@H]1[C@H](OCc2ccccc2)O[C@@H](CO)[C@@H](O)[C@@H]1OC(C)C(=O)N[C@@H](C)C(=O)N[C@H](CCC(=O)NCCNCCNc1c2ccccc2nc2cccc([N+](=O)[O-])c12)C(N)=O (some centres not stated) — recorded Subcut score = 4

Entry `CC(=O)N[C@@H]1[C@H](OCc2ccccc2)O[C@@H](CO)[C@@H](O)[C@@H]1OCC(=O)N[C@@H](C)C(=O)N[C@H](CCC(=O)NCCCCCNc1c2ccccc2nc2cccc([N+](=O)[O-])c12)C(N)=O` — recorded Subcut score = 8

Entry CC(=O)N[C@@H]1[C@H](OCc2ccccc2)O[C@@H](CO)[C@@H](O)[C@@H]1OC(C)C(=O)N[C@@H](C)C(=O)N[C@H](CCC(=O)NCCCCNc1c2ccccc2nc2cccc([N+](=O)[O-])c12)C(N)=O (some centres not stated) — recorded Subcut score = 12
